- system-name: Muscarinic acetylcholine receptor M1 (Homo sapiens) (UniProt P11229)
- Sequence (P11229 whole entry): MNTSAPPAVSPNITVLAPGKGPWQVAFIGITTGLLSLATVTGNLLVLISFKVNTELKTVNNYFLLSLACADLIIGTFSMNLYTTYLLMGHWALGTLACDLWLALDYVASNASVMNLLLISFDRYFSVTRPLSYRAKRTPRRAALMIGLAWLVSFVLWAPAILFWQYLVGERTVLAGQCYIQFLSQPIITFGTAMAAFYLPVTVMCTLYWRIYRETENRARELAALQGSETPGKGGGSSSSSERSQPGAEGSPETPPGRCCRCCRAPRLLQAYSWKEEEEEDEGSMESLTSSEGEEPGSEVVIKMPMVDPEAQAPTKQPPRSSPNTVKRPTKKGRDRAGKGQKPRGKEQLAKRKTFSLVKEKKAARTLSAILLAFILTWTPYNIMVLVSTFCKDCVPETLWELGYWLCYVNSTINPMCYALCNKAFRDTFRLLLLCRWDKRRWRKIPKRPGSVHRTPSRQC
- protocol: Agonist activity at human muscarinic M1 receptor expressed in CHO cells assessed as calcium mobilization at 10 uM by FLIPR assay relative to control
- Format: functional, cell-based
quantity-kind: Efficacy (%)

1. CCOC(=O)N1CCC(CN2CCC3(CC2)OC(=O)N(C)c2ccccc23)CC1 : 91
2. CCCN1C(=O)CC2(CCN(CC3CCN(C(=O)OCC)CC3)CC2)c2cccnc21 : 80
3. CCOC(=O)N1CCC(CN2CCC3(CC2)CC(=O)Nc2ncccc23)CC1 : 112
4. CCOC(=O)N1CCC(CN2CCC3(CC2)CC(=O)N(C)c2ncccc23)CC1 : 94
5. CCOC(=O)N1CCC(CN2CCC3(CC2)OC(=O)N(C)c2ncccc23)CC1 : 99
6. CCOC(=O)N1CCC(CN2CCC3(CC2)OC(=O)Nc2ncccc23)CC1 : 106
7. CCOC(=O)N1CCC(CN2CCC3(CC2)CC(=O)N(CC)c2ncccc23)CC1 : 93

These data points were gathered from ChEMBL document CHEMBL2407005.
